The measurements presented in this section are drawn from the supplement of paper PMC9732359.

The reader will find reported protein stability index values listed item by item below.
# experimental details: protein stability index of a GFP-peptide fusion (yeast GPS) (PSI 1-4); higher = more stable; sorted into four equal gates, so the index is relative within each strain
# condition: san1∆
Please respond with just the number, no unit label.

Consider the reported protein stability index for these sequences:
monomer_sequence="NNPKIQTKDSVKEIVLP [IRR1]" value_reported=3
monomer_sequence="SYHLWPSFTDEQWITIE [PRP8]" value_reported=2.82
monomer_sequence="CKDDVQLQKILESLKPI [MTW1]" value_reported=2.79
monomer_sequence="ANLGKYGILSIDDLIHE [RPL7A]" value_reported=1.54
monomer_sequence="AKRNLDANPSSQIIARN [SMC2]" value_reported=3.09

Query: Indicate its recorded protein stability index; the sequence in question is VNYLISNTMYSVRLFSF [YJL039C/NUP192]
Result: 1.34

Query: Indicate its recorded protein stability index; the sequence in question is FIVSGTASDQLFGMCES [PUP3]
Result: 2.63

Query: Indicate its recorded protein stability index; the sequence in question is GDYSQATVLSRKILKKT [RPN5]
Result: 2.75

Query: Indicate its recorded protein stability index; the sequence in question is NIDSLKFNELVKLMKNI [BRR2]
Result: 1.5

Query: Indicate its recorded protein stability index; the sequence in question is IQEFLVVIEKRRKKILN [GRR1]
Result: 2.88

Query: Indicate its recorded protein stability index; the sequence in question is GILLETISVPQIRDVME [RRP6]
Result: 2.89

Query: Indicate its recorded protein stability index; the sequence in question is GIHDGHIKKLLHQYYGD [FAS1]
Result: 1.85

Query: Indicate its recorded protein stability index; the sequence in question is YMLIEEAASSNKSFIVD [ITC1]
Result: 2.78

Query: Indicate its recorded protein stability index; the sequence in question is DLSMVPKMKDEEYDDDD [SNF2]
Result: 3.24

Query: Indicate its recorded protein stability index; the sequence in question is LEDLKNTKEIAVDLEHH [RRP6]
Result: 2.48
